Tested System: Voltage-gated L-type calcium channel (Rattus norvegicus, UniProt P22002+Q02485+P27732)
Measurement Notes: Binding affinity at the L-type [Ca2+] channel from rat brain homogenate by [3H]nitrendipine displacement.
Assay type: tissue-based
Metric: Log Ki

(Q) Given CO/C(O)=C1\C(C)=NC(C)=C(C(=O)NCCN2CCC(c3ccccc3)(c3ccccc3)CC2)C1c1ccc([N+](=O)[O-])cc1 (stereo unspecified) , state its recorded Log Ki.
(A) < -6

(Q) Given CO/C(O)=C1\C(C)=NC(C)=C(C(=O)NCCCN2CCC(c3ccccc3)(c3ccccc3)CC2)C1c1ccc2ccccc2c1 (stereo unspecified) , state its recorded Log Ki.
(A) -6.43

(Q) Given CO/C(O)=C1\C(C)=NC(C)=C(C(=O)N(C)CCCN2CCC(c3ccccc3)(c3ccccc3)CC2)C1c1ccc([N+](=O)[O-])cc1 (stereo unspecified) , state its recorded Log Ki.
(A) < -6

(Q) Given CO/C(O)=C1\C(C)=NC(C)=C(C(=O)NCCCN2CCC(c3ccccc3)(c3ccccc3)CC2)C1c1ccc(OC)cc1 (stereo unspecified) , state its recorded Log Ki.
(A) < -6

(Q) Given CO/C(O)=C1\C(C)=NC(C)=C(C(=O)NCCCCN2CCC(c3ccccc3)(c3ccccc3)CC2)C1c1ccc([N+](=O)[O-])cc1 (stereo unspecified) , state its recorded Log Ki.
(A) < -6

(Q) Given CO/C(O)=C1\C(C)=NC(C)=C(C(=O)NCCCN2CCC(c3ccccc3)(c3ccccc3)CC2)C1c1ccc2c(c1)OCO2 (stereo unspecified) , state its recorded Log Ki.
(A) < -6

Data provenance: ChEMBL document CHEMBL1131023
